Assay: Cell Viability - LYMP2-017 (AID 972);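 note: cells exposed to compound for 24 hours at 37 °C; nearly all actives have a fitted effect of over 55% in size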
Details: LYMP2-017 lymphoblastoid cell viability; series mostly up to 92.2 µM
Records with an inconclusive call do not appear. Activity calls are given as the source filed them. Calls come from the whole dose curve; as a rule, active = well fitted cell-killing curve with a large enough effect; inconclusive = small, poorly fitted or top-dose-only effect; inactive = flat fitted curve, though single readings scatter.
// classify into active, inactive

[in] Outcome? ClC(Cl)(Cl)Cl
[out] inactive

[in] Outcome? O=C1CCO1
[out] inactive

[in] Outcome? O=C/C=C/c1ccccc1
[out] inactive

[in] Outcome? [Cl-].[Cl-].[Hg+2]
[out] active

[in] Outcome? [O]=[Cd]
[out] inactive

[in] Outcome? COc1ccc2c(c1OC)C(=O)OC2C1c2cc3c(cc2CCN1C)OCO3 (centres undefined)
[out] inactive

[in] Outcome? O=Cc1ccco1
[out] inactive

[in] Outcome? Clc1ccccc1Cl
[out] inactive

[in] Outcome? O=C(O)C(Cl)(Cl)Cl
[out] inactive

###

Target: Cytochrome P450 2D6 (Homo sapiens) (UniProt P10635)
Sequence (P10635 whole entry, looked up): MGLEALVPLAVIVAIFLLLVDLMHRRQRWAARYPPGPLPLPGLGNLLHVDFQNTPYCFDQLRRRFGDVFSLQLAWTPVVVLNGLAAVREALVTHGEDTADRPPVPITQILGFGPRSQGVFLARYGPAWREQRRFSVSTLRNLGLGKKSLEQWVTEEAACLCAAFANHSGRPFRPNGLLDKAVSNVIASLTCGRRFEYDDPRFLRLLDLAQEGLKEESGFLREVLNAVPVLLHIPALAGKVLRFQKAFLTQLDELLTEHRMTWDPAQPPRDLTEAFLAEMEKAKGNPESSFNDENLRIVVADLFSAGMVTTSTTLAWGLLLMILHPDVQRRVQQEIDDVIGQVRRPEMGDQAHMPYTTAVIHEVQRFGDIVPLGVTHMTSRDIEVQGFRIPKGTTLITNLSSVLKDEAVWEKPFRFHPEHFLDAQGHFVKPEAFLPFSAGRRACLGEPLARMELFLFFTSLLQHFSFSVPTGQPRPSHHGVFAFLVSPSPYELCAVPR
Test: qHTS Assay for Inhibitors and Substrates of Cytochrome P450 2D6 (AID 891); note: nearly all actives have a fitted effect of over 60% in size
Details: recombinant CYP2D6, luciferin-ME EGE luminescence; series mostly up to 57.1 µM
Description: NIH Molecular Libraries Screening Centers Network [MLSCN] NIH Chemical Genomics Center [NCGC] The P450 gene superfamily is involved in the metabolism and clearance of xenobiotics. […] The luciferin is then measured by luminescence after the addition of a luciferase detection reagent. […] Inhibitors and some substrates limit the production of luciferin, and decrease measured luminescence. […]
Records with an inconclusive call do not appear. Active and inactive are the calls of the source. Calls come from the whole dose curve; as a rule, active = well fitted inhibition curve with a large enough effect; inconclusive = small, poorly fitted or top-dose-only effect; inactive = no such curve, though single readings can be large or run the other way.
// classify into y = active, n = inactive

[in] Outcome? CCC(=O)O[C@@](Cc1ccccc1)(c1ccccc1)[C@@H](C)CN(C)C
[out] y

[in] Outcome? O=c1ccc2[nH]cc(C3=CCNCC3)c2[nH]1
[out] y

[in] Outcome? CCS(=O)(=O)Nc1cccc(C(=C2CCCCC2)c2cnc[nH]2)c1
[out] y

[in] Outcome? Cc1cc(C)cc(C(=O)OC2C[C@H]3CC[C@@H](C2)N3C)c1 (stereo partly specified)
[out] y

[in] Outcome? Clc1cc(I)cc(Cl)c1NC1=NCCN1
[out] y

[in] Outcome? O=C1C=CC(=O)C=C1
[out] n

###

Test: Quantitative high throughput screen for delayed death inhibitors of the malarial parasite plastid, 48 hour incubation (AID 488752); note: nearly all actives have a fitted effect of over 65% in size
Conditions: Plasmodium falciparum growth; series mostly up to 28.7 µM
Inconclusive results are not listed. Calls of active or inactive are those of the source. Calls come from the whole dose curve; as a rule, active = well fitted inhibition curve with a large enough effect; inconclusive = small, poorly fitted or top-dose-only effect, or effect the other way; inactive = flat fitted curve, though single readings scatter.
MEASURE NAME: outcome

Some molecules with known outcome results, for comparison:
> print(dat)
                                   molecule  measure.name    result
1                   Cc1[nH]c2ccc(O)cc2c1CCN       outcome  inactive
2                      CCN(CCCl)Cc1ccccc1Br       outcome  inactive
3                                  NC(=O)CI       outcome  inactive
4                        CP(=O)(O)C1=CCNCC1       outcome  inactive
5                  c1ccc2c(N3CCNCC3)cccc2c1       outcome  inactive
6  NC(C(=O)O)c1cc(=O)[nH]o1 (stereo not drawn)       outcome  inactive

[in] Query (molecule): CC(N)Cc1c[nH]c2ccc(OCc3cccs3)cc12 (stereo not drawn) ; field requested: outcome
[out] inactive

[in] Query (molecule): CN1C2CCC1CC(OC(c1ccccc1)c1ccccc1N)C2 (stereo not drawn) ; field requested: outcome
[out] inactive

###

Target: Ubiquitin carboxyl-terminal hydrolase 1 (Homo sapiens)
Test: Inhibitors of USP1/UAF1: Pilot qHTS (AID 504865); note: nearly all actives have a fitted effect of over 35% in size
Settings: purified USP1/UAF1, Ub-rhodamine cleavage fluorescence; series mostly up to 114 µM
Results filed as inconclusive are left out. The source made the active and inactive calls. Calls follow the shape of the dose curve; as a rule, active = well fitted inhibition curve with a large enough effect; inconclusive = small, poorly fitted or top-dose-only effect; inactive = flat fitted curve, though single readings scatter.
// classify into 1 = active, -1 = inactive

[in] Outcome? O=c1[nH]cc(N(CCCl)CCCl)c(=O)[nH]1
[out] -1

[in] Outcome? NC(C(=O)O)c1cc(=O)[nH]o1 (stereo unspecified)
[out] -1

[in] Outcome? CNC1(c2ccccc2Cl)CCCCC1=O (stereo unspecified)
[out] -1

[in] Outcome? C[N+]1(C)CCOC(O)(c2ccc(-c3ccc(C4(O)C[N+](C)(C)CCO4)cc3)cc2)C1 (stereo unspecified)
[out] -1

[in] Outcome? CCCC[N+]1(C)C2CC(OC(=O)[C@H](CO)c3ccccc3)CC1C1OC12 (stereo partly specified)
[out] -1

[in] Outcome? [Cl-].[Cl-].[Hg+2]
[out] 1

[in] Outcome? CC(C)(C)c1cc(O)ccc1O
[out] -1

[in] Outcome? NC(=O)COc1c(F)cc(SCCNS(=O)(=O)c2ccccc2)cc1F
[out] -1

[in] Outcome? CO[C@H]1CC=C2CCN3CCC4=C(CC(=O)OC4)[C@]23C1
[out] -1

[in] Outcome? COc1ccc2c3c1O[C@H]1C(=O)CC[C@H]4[C@@H](C2)N(C)CC[C@]314
[out] -1

[in] Outcome? CC(=O)OC1CN2CCC1CC2 (stereo unspecified)
[out] -1

[in] Outcome? CC(C)(O)[C@@H]1C2OC(=O)[C@@H]1[C@]1(O)C[C@H]3O[C@]34C(=O)O[C@H]2[C@]14C (tested in a mixture with another compound)
[out] -1

[in] Outcome? N#CN
[out] -1

[in] Outcome? O=P(O)(O)C(Cl)(Cl)P(=O)(O)O
[out] -1

[in] Outcome? CCC1(CC)C(=O)NC(=O)N(C)C1=O
[out] -1

[in] Outcome? O=[N+]([O-])c1ccccc1
[out] -1

[in] Outcome? CNC(=O)OCC[N+](C)(C)C
[out] -1

[in] Outcome? N[C@@H](Cn1oc(=O)[nH]c1=O)C(=O)O
[out] -1

[in] Outcome? [O]=[Cd]
[out] -1

[in] Outcome? CCC1C(C)=NN=C(c2ccc(OC)c(OC)c2)c2cc(OC)c(OC)cc21 (stereo unspecified)
[out] -1

[in] Outcome? Cc1cc([C@@H]2CCCN2C)on1
[out] -1

[in] Outcome? Cn1sc(Cl)cc1=O
[out] -1

[in] Outcome? Cc1[nH]c2ccc(O)cc2c1CCN
[out] -1

[in] Outcome? CCON=O
[out] -1

[in] Outcome? CC(C)(C)c1o[nH]c(=O)c1CC(N)C(=O)O (stereo unspecified)
[out] -1

[in] Outcome? [N-]=[N+]=CC(=O)OCC(N)C(=O)O (stereo unspecified)
[out] -1

[in] Outcome? CC[N+](C)(CC)CCOC(=O)C(O)(c1ccccc1)c1ccccc1
[out] -1

[in] Outcome? Ic1ccccc1CNC1C2CCN(CC2)C1C(c1ccccc1)c1ccccc1 (stereo unspecified)
[out] -1

[in] Outcome? S=C(S)N1CCNCC1
[out] -1

[in] Outcome? c1ccc2sc(SNC3CCCCC3)nc2c1
[out] -1

[in] Outcome? CCCN(CCC)CCc1c[nH]c2ccc(C(N)=O)cc12
[out] -1

[in] Outcome? CCCN(CCC)CCc1ccc(O)c(O)c1
[out] -1

[in] Outcome? CCN(CCCl)Cc1ccccc1Br
[out] -1

[in] Outcome? NC(Cc1ccc(N(CCCl)CCCl)cc1)C(=O)O (stereo unspecified)
[out] -1

[in] Outcome? CC(=O)O[C@H]1CC[C@H]2[C@@H]3CCC4=CC(=O)CCC4=C3C=C[C@]12C
[out] -1

[in] Outcome? O=C(OCCN1CCCCC1)C(O)(c1ccccc1)c1ccccc1
[out] -1

[in] Outcome? CN1CCc2cccc(Cl)c2CC1
[out] -1

[in] Outcome? CCN1C[C@@]2(COC)C3[C@@H](OC)C4[C@@H]1C3([C@@H]1C[C@]3(O)[C@H](OC(=O)c5ccccc5)[C@@H]1[C@]4(OC(C)=O)[C@@H](O)[C@@H]3OC)[C@H](OC)C[C@H]2O
[out] -1

[in] Outcome? CCCCCCCCOC(=O)c1ccccc1C(=O)OCCCCCCCC
[out] -1

[in] Outcome? C=CCN1C[C@@H](C)N([C@H](c2ccc(C(=O)N(CC)CC)cc2)c2cccc(OC)c2)C[C@@H]1C
[out] -1

[in] Outcome? CCCN(CCC)C1Cc2cc(OC)c(OC)cc2C1
[out] -1

[in] Outcome? C[N+]1(C)CCCCC1COC(=O)C(O)(c1ccccc1)c1ccccc1 (stereo unspecified)
[out] -1

[in] Outcome? FC(F)OC(F)(F)C(F)Cl (stereo unspecified)
[out] -1

[in] Outcome? ClC(Cl)(Cl)Cl
[out] -1

[in] Outcome? COc1ccc(OC)c(C(O)C(C)N)c1 (stereo unspecified)
[out] -1

[in] Outcome? CC(C)(O)C1C2OC(=O)C1C1(O)CC3OC34C(=O)OC2C14C (stereo unspecified)
[out] -1

[in] Outcome? CC(N)Cc1c[nH]c2ccc(OCc3cccs3)cc12 (stereo unspecified)
[out] -1

[in] Outcome? C=CCC1(C(C)CCC)C(=O)N=C(S)NC1=O (stereo unspecified)
[out] -1

[in] Outcome? C[C@H](N)Cc1cccc(C(F)(F)F)c1
[out] -1

[in] Outcome? O=c1[nH]c(=O)n(Cl)c(=O)n1Cl
[out] -1

[in] Outcome? CCC(C)(S(=O)(=O)CC)S(=O)(=O)CC
[out] -1
